# Target Desc: UniProt P43116
# Experimental Protocol: hEP2 b-Arrestin Assay (PathHunter HEK 293 PTGER2 b-arrestin cells, PGE2 5 μM)
# Assay Conditions: antagonistic activity, beta-arrestin assay, HEK 293 PTGER2 cells, PGE2 5 μM (EC80); read-out: hEP2 b-arr IC50
I'd appreciate it if you marked entries class 1 when IC50 is lower than 50 nM and class 0 when it is not.

Compound String: CCOc1cc(-c2cc(NCCc3c(OC)ccc4ccccc34)ncn2)sc1C(=O)O
Class Assignment: class 1
//
Compound String: CCOc1cc(-c2cc(NCCc3c(OCC)ccc4ccccc34)ncn2)sc1C(=O)O
Class Assignment: class 1
//
Compound String: O=C(O)c1ccc(-c2cc(NCCc3cccc4sccc34)ncn2)cc1OC1CCC1
Class Assignment: class 0
//
Compound String: CCOc1cc(-c2cc(NCCc3cccc4c(F)cccc34)ncn2)ccc1C(=O)O
Class Assignment: class 0
//
Compound String: CCOc1cc(-c2cc(NCCc3c(C#N)ccc4c(OC)ccc(F)c34)ncn2)sc1C(=O)O
Class Assignment: class 0

====

# Target Desc: EP2 (Homo sapiens)
# Construct: SF295 glioblastoma cells express high endogenous EP2 and no EP4
# Sequence (P43116 whole entry): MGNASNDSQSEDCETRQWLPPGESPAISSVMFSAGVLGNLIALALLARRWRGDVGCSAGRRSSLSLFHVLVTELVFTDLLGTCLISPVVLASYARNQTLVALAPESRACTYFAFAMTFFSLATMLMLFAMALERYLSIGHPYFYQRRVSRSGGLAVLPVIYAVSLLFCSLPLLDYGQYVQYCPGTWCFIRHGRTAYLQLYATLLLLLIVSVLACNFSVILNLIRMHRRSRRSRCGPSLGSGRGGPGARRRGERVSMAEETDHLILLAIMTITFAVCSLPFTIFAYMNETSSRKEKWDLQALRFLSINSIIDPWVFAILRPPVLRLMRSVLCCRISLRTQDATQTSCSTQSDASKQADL
# Experimental Protocol: hEP2 cAMP Assay (SF295 glioblastoma cells, HTRF cAMP, PGE2 75 nM)
# Assay Conditions: antagonistic activity, PGE2 75 nM (EC80)
pIC50: −log10 of the molar value.
// pIC50 lookup, one value per entry

Compound String: CCOc1cc(-c2cc(NCCc3c(OC)ccc4c3CCO4)ncn2)sc1C(=O)O
pIC50: 7.19
//
Compound String: CCCc1cc(-c2cc(NCCc3c(OC)ccc4ccccc34)ncn2)ccc1C(=O)O
pIC50: 8.30
//
Compound String: CCOc1cc(-c2cc(NCCc3c(OC)ccc4ccccc34)ncn2)sc1-c1noc(=O)[nH]1
pIC50: 8.22
//
Compound String: CCOc1cc(-c2cc(NCCc3cccc4c(C)cccc34)ncn2)ccc1C(=O)O
pIC50: 7.32
//
Compound String: CCOc1cc(-c2cc(NCCc3cccc4ccoc34)ncn2)ccc1OCC(=O)O
pIC50: 6.33
//
Compound String: CCOc1cc(-c2cc(NCCc3c(OCC)ccc4ccccc34)ncn2)ccc1C(=O)O
pIC50: 8.10
//
Compound String: CCOc1cc(-c2cc(NCCc3ccc(C(F)F)c4ccccc34)ncn2)ccc1C(=O)O
pIC50: 6.43
//
Compound String: CCOc1cc(-c2cc(NCCc3c(OC)ccc4c(OC)cccc34)ncn2)ccc1OCC(=O)O
pIC50: 6.08
//
Compound String: CCOc1cc(-c2cc(NCCc3c(C#N)ccc4ccccc34)ncn2)ccc1C(=O)O
pIC50: 7.60
//
Compound String: CCOc1cc(-c2cc(NCCc3ccc(OC)c4ccccc34)ncn2)sc1C(=O)O
pIC50: 6.85
//
Compound String: CCOc1cc(-c2cc(NCCc3cccc4ncccc34)ncn2)sc1-c1noc(=O)[nH]1
pIC50: 6.49
//
Compound String: CCOc1cc(-c2cc(NCCc3c(OC)ccc4ccccc34)ncn2)sc1C(=O)O
pIC50: 8.70
//
Compound String: Cc1ccc2cnccc2c1CCNc1cc(-c2ccc(C(=O)O)c(OC3CCC3)c2)ncn1
pIC50: 6.75
//
Compound String: CCOc1cc(-c2cc(NCCc3cccc4cc(C)n(C)c34)ncn2)ccc1OCC(=O)O
pIC50: 6.29
//
Compound String: CCOc1cc(-c2cc(NCCc3c(C#N)ccc4c(OC)ccc(F)c34)ncn2)sc1C(=O)O
pIC50: 6.54

This collection of values is drawn from patent US11446298B2.
